Cited source for all entries: ChEMBL document CHEMBL2069206

Target: Adenosine receptor A1 (Homo sapiens, UniProt P30542)
Sequence (P30542 whole entry): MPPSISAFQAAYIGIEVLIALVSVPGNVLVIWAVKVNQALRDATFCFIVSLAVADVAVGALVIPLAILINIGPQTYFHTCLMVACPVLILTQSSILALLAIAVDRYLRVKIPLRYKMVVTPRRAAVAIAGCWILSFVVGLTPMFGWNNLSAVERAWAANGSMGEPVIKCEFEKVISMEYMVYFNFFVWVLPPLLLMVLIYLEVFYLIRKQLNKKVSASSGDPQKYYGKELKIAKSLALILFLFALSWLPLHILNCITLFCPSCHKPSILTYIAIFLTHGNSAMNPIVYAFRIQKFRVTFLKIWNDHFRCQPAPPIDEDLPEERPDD
Ki by entry:
EXPERIMENTAL ENDPOINT: Ki (µM)

>>> value("Nc1ncnc2c1ncn2[C@@H]1O[C@H](C(=O)NC2CCCC2)[C@@H](O)[C@H]1O")
0.027
>>> value("Nc1ncnc2c1ncn2[C@@H]1O[C@H](C(=O)NC2CC2)[C@@H](O)[C@H]1O")
0.0019

----------
Below are Ki values measured for Adenosine receptor A3 (Homo sapiens).
EXPERIMENTAL ENDPOINT: Ki

>>> value("Nc1ncnc2c1ncn2[C@@H]1O[C@H](C(=O)NC2CC2)[C@@H](O)[C@H]1O")
"180 nM"
>>> value("Nc1ncnc2c1ncn2[C@@H]1O[C@H](C(=O)NC2CCC2)[C@@H](O)[C@H]1O")
"70 nM"
>>> value("Nc1ncnc2c1ncn2[C@@H]1O[C@H](C(=O)NCC(F)(F)F)[C@@H](O)[C@H]1O")
"700 nM"

----------
Below are Ki values measured for Adenosine receptor A2a (Homo sapiens, UniProt P29274).
EXPERIMENTAL ENDPOINT: Ki

>>> value("Nc1ncnc2c1ncn2[C@@H]1O[C@H](C(=O)NC2CCC2)[C@@H](O)[C@H]1O")
"34 nM"
>>> value("Nc1ncnc2c1ncn2[C@@H]1O[C@H](C(=O)NC2CC2)[C@@H](O)[C@H]1O")
"50 nM"

----------
Target: Adenosine receptor A1 (Homo sapiens)
Assay: Partial agonist activity at human A1 adenosine receptor expressed in CHO cells assessed as inhibition of forskolin-induced cAMP accumulation after 30 mins
pEC50: −log10 of the molar value.
EXPERIMENTAL ENDPOINT: pEC50

>>> value("Nc1ncnc2c1ncn2[C@@H]1O[C@H](C(=O)NC2CCC2)[C@@H](O)[C@H]1O")
7.82
